Origin of measurements: patent US20230105457A1

systemName: T1, HLA-A*0201 molecule expressed on human tumor cell line T2 (human)
T1 construct: surface HLA-A2 read with anti-HLA-A2 antibody BB7.2-PE by FACS; also called HLA-A2
procedureSummary: T2 cell HLA-A2 stabilisation, FACS; peptide at 1.5625 µM
metricName: mean relative fluorescence intensity

# mean relative fluorescence intensity lookup, item RLSSYLVEI [FOXM1-B]
0 relative (HIV peptide = 100)

Next binder up: LMDLSTTEV [FOXM1-B2]
7.2 relative (HIV peptide = 100)

Quick one: FLPFGFILV (also called candidate peptide) [IL13RA2-B]
14.8 relative (HIV peptide = 100)

FMLGEFLKL [BIRC5-B1] , same question.
1.9 relative (HIV peptide = 100)

Now the same for GLLGEFLQI [BIRC5-B3]
9.4 relative (HIV peptide = 100)

Next binder up: WLPFGFILI [IL13RA2-H]
3 relative (HIV peptide = 100)

Here is the next binder: LTLGEFLKL [BIRC5-H]
1.7 relative (HIV peptide = 100)

Queued: RVSSYLVPI [FOXM1-H]
0 relative (HIV peptide = 100)

Param item: LMDLSTTPL [FOXM1-H2]
5.3 relative (HIV peptide = 100)
